Values were extracted from PubChem BioAssay (NCI).

# Protocol notes: NCI Yeast Anticancer Drug Screen. Data for the cln2 rad14 strain (AID 165);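 note: 0% = growth equal to vehicle treated cultures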
# Condition description: S. cerevisiae cln2 rad14 strain, at 5.0 µM (retest, dose inferred, filed as 0.5), hits give high values
This is part of a sample that, as a whole, favours compounds with a hit. Of some 79,000 tested, about 15% had one in any assay. Residues, ends and D or L forms follow the SMILES beside them. *: point of attachment. Fmoc = O=C(OCC1c2ccccc2-c2ccccc21)*; Boc = CC(C)(C)OC(=O)*
Reported growth inhibition values follow for various molecules
Measure name: growth inhibition (%)

molecule="O=C1SS(=O)c2ccccc21 (stereo not given)" measure_name="growth inhibition" result_number=11
molecule="COc1cccc(C(NC2=NCCC=N2)c2cc3c(cc2O)OCO3)c1O (stereo not given)" measure_name="growth inhibition" result_number=26
molecule="Cc1cccc(C)c1NC(=O)C(C#N)C1=C(Cl)C(=O)c2ccccc2C1=O (stereo not given)" measure_name="growth inhibition" result_number=65
molecule="CC(C)(CN1CCCCC1)C(=O)CC(SCCS(=O)(=O)O)c1ccccc1 (stereo not given)" measure_name="growth inhibition" result_number=72
molecule="CC(C)(C)OC(=O)NCCCCC(NC(=O)C(Cc1c[nH]c2ccccc12)NC(=O)OCC1c2ccccc2-c2ccccc21)C(=O)O (stereo not given) (Fmoc-Trp-Lys(Boc)-OH; configuration not given here)" measure_name="growth inhibition" result_number=37
molecule=CC1=COC2=C(C)C(=O)C(=O)c3c(C)ccc1c32 measure_name="growth inhibition" result_number=16
molecule="O=C1C2=C(c3ccccc31)C(c1ccccc1)N1C(=O)CSC1=N2 (stereo not given)" measure_name="growth inhibition" result_number=-11
molecule=COc1cc2oc3ccccc3c(=O)c2cc1CSc1ccccc1N measure_name="growth inhibition" result_number=2
molecule=Brc1ccc(B2Nc3ccccc3N2)cc1 measure_name="growth inhibition" result_number=12
molecule=COC(=O)C1=C(C(=O)OC)CC(n2nnc(C(=O)OC)c2C(=O)OC)=CC1 measure_name="growth inhibition" result_number=-2
molecule=CC/C(=C(\c1ccccc1)c1ccc(OCC[N+](C)(C)C)cc1)c1ccccc1 measure_name="growth inhibition" result_number=21
molecule=COc1ccc(-c2cc(-c3cc(C)cc(Cl)c3O)nc3[nH]c(=S)[nH]c(=S)c23)cc1 measure_name="growth inhibition" result_number=44
molecule=O=c1c2ccccc2nc(-c2ccc(Cl)cc2)n1O measure_name="growth inhibition" result_number=-23
molecule=CC1CCN(CCC(=O)c2ccc([N+](=O)[O-])cc2)CC1 measure_name="growth inhibition" result_number=8
molecule="O=S(=O)(NC1CCCC(c2ccccc2)C1)c1ccccc1 (stereo not given)" measure_name="growth inhibition" result_number=-13

----------
Measured growth inhibition, listed per entry.
# Protocol notes: NCI Yeast Anticancer Drug Screen. Data for the wt2 strain (AID 169);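 note: 0% = growth of vehicle-treated yeast cultures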
# Condition description: S. cerevisiae wt2 strain growth inhibition; at 3.7 µM; hits give high values
Compounds without any hit were thinned out: in the full panel of roughly 79,000, 15% have a hit.
Measure name: growth inhibition (%)

compound="NC(CS)C(=O)NCCNc1ccc(NCCNC(=O)C(N)CS)c2c1C(=O)c1c(O)ccc(O)c1C2=O (configuration not stated)" result_number=-57
compound=O=S(=O)(c1ccccc1)N1CN2CN(C1)CN(S(=O)(=O)c1ccccc1)C2 result_number=9
compound=O=C1c2ccccc2-c2ccc(N=Cc3ccccc3)cc21 result_number=6
compound=O=C1C[C@H]2[C@H](c3ccc(Br)cc3)[C@H]3C(=O)c4ccccc4NC(=O)[C@@H]3[C@@]2(O)c2ccccc2N1 result_number=11
compound=CCCN=Cc1cc(Cc2ccc(O)c(C=NCCC)c2)ccc1O result_number=98
compound=CCN(CC)CCNc1ccc2nc(C)n3c4ccc(OC)cc4c(=O)c1c23 result_number=-25
compound=CC(C)(C)c1ccc2c(c1)C(=O)c1ccccc1C2=O result_number=6

----------
growth inhibition by entry:
# Protocol notes: NCI Yeast Anticancer Drug Screen. Data for the mgt1 strain (AID 153)
# Condition description: S. cerevisiae mgt1 mutant growth inhibition; at 3.7 µM; hits give high values
Compounds without any hit were thinned out: in the full panel of roughly 79,000, 15% have a hit.
Measure name: growth inhibition (%)

compound=O=C(/C=C/c1ccsc1)c1cccs1 endpoint_unit=% result_number=-2
compound="CCCCCCCCN1COCC(COc2ccccc2C)OC1 (stereo not given)" endpoint_unit=% result_number=-2
compound=CCCCCCNCCCNc1c2cc(OC)ccc2nc2cccc([N+](=O)[O-])c12 endpoint_unit=% result_number=0
compound="C=CC(C)(C)N1C(=O)C(C(C)=O)=C(O)C1Cc1c[nH]c2ccccc12 (stereo not given)" endpoint_unit=% result_number=-4
compound=COC(=O)C(=O)CC(=O)c1cccc(OC)c1 endpoint_unit=% result_number=-4

----------
Reported growth inhibition values for a set of molecules
# Protocol notes: NCI Yeast Anticancer Drug Screen. Data for the CLN2oe strain (AID 163);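 note: 0% = growth of vehicle-only control cultures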
# Condition description: S. cerevisiae CLN2oe strain, at 1.2 µM, hits give high values
The panel holds about 79,000 compounds, 15% with a hit somewhere; the sample as a whole holds those more often.
Measure name: growth inhibition (%)

molecule="CC(C)[Si]1(C(C)C)OCC2OC(n3cnc4c(N)ncnc43)C(N)C2O[Si](C(C)C)(C(C)C)O1 (stereo not given)" measure_name="growth inhibition" result_number=14
molecule=Nc1cc(Cl)ccc1Nc1ccccc1 measure_name="growth inhibition" result_number=5
molecule=O=[N+]([O-])c1cccc2nc3ccccc3c(NCCCN3CCCCC3)c12 measure_name="growth inhibition" result_number=-3
molecule=COc1ccc(/C=C2\SC(=S)N(/C=C3\C(=O)N(c4ccccc4)N=C3C)C2=O)cc1OC measure_name="growth inhibition" result_number=-18
molecule="Cc1cccc(C)c1NC(=O)CCC(=O)C(C)C(=O)c1ccc(O)cc1 (stereo not given)" measure_name="growth inhibition" result_number=-5

----------
# Protocol notes: NCI Yeast Anticancer Drug Screen. Data for the mgt1 strain (AID 153)
# Condition description: S. cerevisiae mgt1 mutant growth inhibition; at 33.0 µM; hits give high values
Compounds without any hit were thinned out: in the full panel of roughly 79,000, 15% have a hit.
The following compounds are shown together with reported growth inhibition values.
Measure name: growth inhibition (%)

compound=CCN(CC)C(=S)SC(=S)N(CC)CC result_number=95
compound="c1ccc(-c2cc(C3CO3)c3ccccc3n2)cc1 (centres undefined)" result_number=69
compound=Cc1cccc2c(Cl)c3cccc(C)c3nc12 result_number=0
compound=CC(C)(CN1CCCCC1)C(=O)/C=C/c1c(Cl)cccc1Cl result_number=98
compound=Cc1cc2nc3ccccc3n2c2ccccc12 result_number=37
compound=COc1ccc(-c2cc(-c3cc(C)cc(Cl)c3O)nc3[nH]c(=S)[nH]c(=S)c23)cc1 result_number=25
compound="O=C1SS(=O)c2ccccc21 (centres undefined)" result_number=42
compound="CC1C(c2ccccc2)SC(=N)N1C (centres undefined)" result_number=-1
compound=CCCCCCCCCCCCCCN result_number=52
compound="O=C(NCCCCN1CC2CCCC2C1)C(C1CCCCC1)C1CCCCC1 (centres undefined)" result_number=94
compound="CN1C(=O)C(CC(=O)O)NC1=S (centres undefined)" result_number=21
compound=Cc1cccc(/C=N/NC(=S)NC2CCCCC2)n1 result_number=20
compound=O=[N+]([O-])c1ccc(C(c2c[nH]c3ccccc23)c2c[nH]c3ccccc23)cc1 result_number=94
compound=O=C(/N=N/C(=O)Oc1ccccc1)Oc1ccccc1 result_number=-29

----------
# Protocol notes: NCI Yeast Anticancer Drug Screen. Data for the rad14 strain (AID 159);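 note: 0% = growth of vehicle-treated control cultures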
# Condition description: S. cerevisiae rad14 strain growth inhibition; at 3.7 µM; hits give high values
Compounds without any hit were thinned out: in the full panel of roughly 79,000, 15% have a hit.
We begin with a simple list: items and their reported growth inhibition.
Measure name: growth inhibition (%)

compound=O=C(O)c1ccc2cc(Cl)c3ccccc3c2c1 measure_name="growth inhibition" result_number=7
compound=Cc1cccc(/C=N/NC(=S)NC2CCCCC2)n1 measure_name="growth inhibition" result_number=-15
compound=CCCCCCCCNCCCCCCCC measure_name="growth inhibition" result_number=82
compound=Oc1c2c(c(O)c3ccccc13)C1(N=N2)c2ccccc2Oc2ccccc21 measure_name="growth inhibition" result_number=44
compound=CN(C)CCCn1c2c3ccccc3ccc2c2oc(=O)c3ccccc3c21 measure_name="growth inhibition" result_number=10
compound=CN(C)N=Nc1ccc(N(C)C)cc1 measure_name="growth inhibition" result_number=0
compound=O=C(NO)c1coc2ccccc2c1=O measure_name="growth inhibition" result_number=-1
compound="CC(/C=C/c1ccc([N+](=O)[O-])o1)=N/N1CC(CN2CCOCC2)OC1=O (configuration not stated)" measure_name="growth inhibition" result_number=10
compound=Clc1nc(Cl)nc(Nc2cccc3ccccc23)n1 measure_name="growth inhibition" result_number=15
compound=O=C(CN(c1ccccc1)c1ccccc1)n1nnc2ccccc21 measure_name="growth inhibition" result_number=-18
compound=Nc1ccc2c(c1)C(=O)c1c(F)cccc1-2 measure_name="growth inhibition" result_number=7
compound=O=C1c2ccccc2C(=O)c2sc(Nc3ccccc3Cl)nc21 measure_name="growth inhibition" result_number=26
compound=O=c1c2ccccc2nc(-c2cccc([N+](=O)[O-])c2)n1O measure_name="growth inhibition" result_number=73
compound=CCC(/C=C/c1ccccc1)=N\Nc1ccc(Cl)c(Cl)c1 measure_name="growth inhibition" result_number=0
compound="O=C(NNc1ccccc1)C(CCCCNS(=O)(=O)Cc1ccccc1)NS(=O)(=O)Cc1ccccc1 (configuration not stated)" measure_name="growth inhibition" result_number=1
compound=NNc1ccccc1-c1nc2ccccc2[nH]1 measure_name="growth inhibition" result_number=-5
compound="COc1ccc2c(c1)CCCC(Br)C2=O (configuration not stated)" measure_name="growth inhibition" result_number=2
compound="CCC(=O)C1=C(O)c2cc(OC)ccc2CC1C(=O)OC (configuration not stated)" measure_name="growth inhibition" result_number=6
compound=CNC(=O)OCc1c2ccncc2c(C)c2c1[nH]c1ccccc12 measure_name="growth inhibition" result_number=80
compound="COc1cc2c(cc1O)[C@H](C)C(c1ccccc1OC)O2 (some centres not stated)" measure_name="growth inhibition" result_number=-11
compound=C[N+](C)([O-])CCCNc1c2ccccc2nc2cccc([N+](=O)[O-])c12 measure_name="growth inhibition" result_number=90
compound=CCCNC(=O)OCc1c(COC(=O)NCCC)c(-c2ccc(Cl)c(Cl)c2)n2c1CCC2 measure_name="growth inhibition" result_number=-3
